Please respond with reported drug sensitivity score for every item in the list.
# Tested on: ZR-75-1 Tam2
# Assay Comment: drug sensitivity score (DSS) (DSS (dimensionless)); higher = more sensitive; extreme values may be limits of the assay
# Measurement Parameters: 4-OH-tamoxifen in medium 1 µM; 72 h
Answers are plain numbers.

Guide cases for drug sensitivity score, answers given:
>  <Molecule>
CCC1=C[C@@H]2CN(C1)Cc1c([nH]c3ccccc13)[C@@](C(=O)OC)(c1cc3c(cc1OC)N(C)[C@H]1[C@@](O)(C(=O)OC)[C@H](OC(C)=O)[C@]4(CC)C=CCN5CC[C@]31[C@@H]54)C2 [Vinorelbine (tartrate)]

>  <Value>
2.36

$$$$
>  <Molecule>
Cc1ccc(NC(=O)c2ccc(CN3CCN(C)CC3)cc2)cc1Nc1nc(-c2cccnc2)cs1

>  <Value>
1.85

$$$$

Let us move to another entry and its drug sensitivity score.
Look at this molecule and give its reported drug sensitivity score. Cc1cc(C(C)Nc2ccccc2)c2nc(N3CCOCC3)cc(=O)n2c1 (stereo not drawn)
14.3
